Origin of measurements: ChEMBL document CHEMBL3091298

tested on: Staphylococcus aureus; assay: Antibacterial activity against Staphylococcus aureus after 18 to 24 hrs; format: functional
ATTRIBUTE_MEASURED: MIC (µg/mL)

(P) Cc1nc2c(c3c1OC(C)(C)OC3)C[P+](c1ccccc1)(c1ccccc1)CC[P+](c1ccccc1)(c1ccccc1)C2.[Cl-].[Cl-]
(Q) CCCC1OCc2c(C[P+](c3ccc(C)cc3)(c3ccc(C)cc3)c3ccc(C)cc3)c(C[P+](c3ccc(C)cc3)(c3ccc(C)cc3)c3ccc(C)cc3)nc(C)c2O1.[Cl-].[Cl-] (centres undefined)
Query :: Form field 'greater MIC' accepts P or Q ; which applies? Reply briefly: the label of your chosen item.
Result :: P
